Documented % Charged at pH 7.5 across a set of molecules
# assayProtocol: TNS fluorescence titration for ionizable lipid pKa in liposomal bilayers
# measurementParameters: aminolipid incorporated into liposomes; from TNS fluorescence titrations

| molecule | result |
| --- | --- |
| CCCCCCCC/C=C\CCCCCCCC(=O)OCC(CN(C)C)OC(=O)CCCCCCC/C=C\CCCCCCCC (racemic) | 11% |

query: # % Charged at pH 7.5 lookup, item CCCCCCCC/C=C\CCCCCCCC(=O)OCC(CN(C)C)OC(C)=O (racemic)
result: 16%

query: # % Charged at pH 7.5 lookup, item CCCCCCCC/C=C\CCCCCCCC(=O)OCC(CN(C)C)OC(=O)CCCCCCCCC (racemic)
result: 14%

query: # % Charged at pH 7.5 lookup, item CCCCCCCC/C=C\CCCCCCCC(=O)OCC(CN(C)C)OC(=O)CCC (racemic)
result: 13%

query: # % Charged at pH 7.5 lookup, item CCCCCCCC/C=C\CCCCCCCC(=O)OCC(O)CN(C)C (racemic)
result: 54%

query: # % Charged at pH 7.5 lookup, item CCCCCCCCCC(=O)OCC(CN(C)C)OC(=O)CCCCCCCCC (racemic)
result: 17%
